PROTOCOL_DETAILS: Blood, urine and tissue concentrations in mice after oral administration (microbiological assay with Bacillus pumilus)
Type: in vivo
CONDITIONS: po, 2mg/mouse P.O., 4 hours, urine after 18 hours incubation with Glusalase (glucuronidase and sulfatase), read-out: Concentration at 4HRS in: Urine After glacolase
PROPERTY_NAME: concentration at 4 h (µg/mL)
Please give a number only; it is taken to be in µg/mL.

Record excerpt, results attached:
* CCc1cc(Cc2cnc(N)nc2N)cc(CC)c1O [COMPOUND 1] | 790
* COc1cc(Cc2cnc(N)nc2N)cc(OC)c1OC [TMP, reference compound] | 400
* CCCc1cc(Cc2cnc(N)nc2N)cc(CC)c1O [COMPOUND 3] | 1800
* CC(C)c1cc(Cc2cnc(N)nc2N)cc(C(C)C)c1O [COMPOUND 4] | 190
* CC(C)(C)c1cc(Cc2cnc(N)nc2N)cc(C(C)(C)C)c1O [COMPOUND 5] | 240

Continue with the compound presented below.
Input line: Which concentration at 4 h reading was recorded for the compound CCCc1cc(Cc2cnc(N)nc2N)cc(CCC)c1O [COMPOUND 2] ?
Output line: 650

###

concentration at 4 h listing for selected compounds.
PROTOCOL_DETAILS: Blood, urine and tissue concentrations in mice after oral administration (microbiological assay with Bacillus pumilus)
Assay type: in vivo
CONDITIONS: muscle, po, 2mg/mouse P.O., 4 hours, tissue homogenate, read-out: Concentration at 4HRS in: Muscle

- CCCc1cc(Cc2cnc(N)nc2N)cc(CCC)c1O: < 30 ng/mL
- COc1cc(Cc2cnc(N)nc2N)cc(OC)c1OC [TMP, reference compound]: < 40 ng/mL
- CCCc1cc(Cc2cnc(N)nc2N)cc(CC)c1O: 210 ng/mL
- CC(C)(C)c1cc(Cc2cnc(N)nc2N)cc(C(C)(C)C)c1O: < 260 ng/mL
- CCc1cc(Cc2cnc(N)nc2N)cc(CC)c1O: < 30 ng/mL

Continue with the compound presented below.
Input line: Which concentration at 4 h reading was recorded for the compound CC(C)c1cc(Cc2cnc(N)nc2N)cc(C(C)C)c1O ?
Output line: < 30 ng/mL

###

PROTOCOL_DETAILS: Blood, urine and tissue concentrations in mice after oral administration (microbiological assay with Bacillus pumilus)
Assay type: in vivo
CONDITIONS: po, 2mg/mouse P.O., 4 hours, urine before incubation with Glusalase, read-out: Concentration at 4HRS in: Urine Direct
Rule: true (1) for concentration at 4 h not less than 60 µg/mL, false (0) for anything less.

- CC(C)c1cc(Cc2cnc(N)nc2N)cc(C(C)C)c1O: true (1)
- CCCc1cc(Cc2cnc(N)nc2N)cc(CCC)c1O: false (0)
- COc1cc(Cc2cnc(N)nc2N)cc(OC)c1OC [TMP, reference compound]: true (1)
- CC(C)(C)c1cc(Cc2cnc(N)nc2N)cc(C(C)(C)C)c1O: true (1)
- CCc1cc(Cc2cnc(N)nc2N)cc(CC)c1O: false (0)

Input line: Determine whether this molecule has concentration at 4 h no lower than 60 µg/mL: CCCc1cc(Cc2cnc(N)nc2N)cc(CC)c1O
Output line: false (0)

###

PROTOCOL_DETAILS: Blood, urine and tissue concentrations in mice after oral administration (microbiological assay with Bacillus pumilus)
Type: in vivo
CONDITIONS: brain, po, 2mg/mouse P.O., 4 hours, tissue homogenate, read-out: Concentration at 4HRS in: Brain
PROPERTY_NAME: concentration at 4 h (ng/mL)
Please give a number only; it is taken to be in ng/mL.

Input line: Which concentration at 4 h reading was recorded for the compound CC(C)(C)c1cc(Cc2cnc(N)nc2N)cc(C(C)(C)C)c1O ?
Output line: 4400

Input line: Which concentration at 4 h reading was recorded for the compound CCCc1cc(Cc2cnc(N)nc2N)cc(CC)c1O ?
Output line: 440

Input line: Which concentration at 4 h reading was recorded for the compound CCCc1cc(Cc2cnc(N)nc2N)cc(CCC)c1O ?
Output line: 500

Input line: Which concentration at 4 h reading was recorded for the compound CCc1cc(Cc2cnc(N)nc2N)cc(CC)c1O ?
Output line: 340

Input line: Which concentration at 4 h reading was recorded for the compound CC(C)c1cc(Cc2cnc(N)nc2N)cc(C(C)C)c1O ?
Output line: 460
